Molecular target: hTRESK (K2P18.1) (Homo sapiens, UniProt Q7Z418)
Construct: full-length channel in pcDNA3.1, transiently expressed in tsA201 cells; homodimer
Sequence (Q7Z418 whole entry): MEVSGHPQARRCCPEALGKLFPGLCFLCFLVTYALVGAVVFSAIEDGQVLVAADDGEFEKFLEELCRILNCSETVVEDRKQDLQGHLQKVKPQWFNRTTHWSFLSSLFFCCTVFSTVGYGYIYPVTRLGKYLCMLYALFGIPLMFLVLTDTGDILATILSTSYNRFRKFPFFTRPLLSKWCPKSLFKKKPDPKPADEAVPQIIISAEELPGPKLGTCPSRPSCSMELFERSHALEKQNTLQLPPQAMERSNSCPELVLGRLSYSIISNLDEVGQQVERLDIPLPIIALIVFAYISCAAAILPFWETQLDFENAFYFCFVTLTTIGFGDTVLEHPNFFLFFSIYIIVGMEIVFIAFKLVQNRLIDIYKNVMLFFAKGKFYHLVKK
Test: whole-cell patch clamp, tsA201 cells
Measure Name: IC50 (µM)

> print(dat)
                                     smiles  measurement.unit  obs.value
1  COc1cccc2c1cc([N+](=O)[O-])c1c(C(=O)O)cc3c(c12)OCO3                µM         13

These measurements were taken from paper PMC4842925.
